assayedSystem: UniProtKB Q9Y271
Sequence (Q9Y271 whole entry): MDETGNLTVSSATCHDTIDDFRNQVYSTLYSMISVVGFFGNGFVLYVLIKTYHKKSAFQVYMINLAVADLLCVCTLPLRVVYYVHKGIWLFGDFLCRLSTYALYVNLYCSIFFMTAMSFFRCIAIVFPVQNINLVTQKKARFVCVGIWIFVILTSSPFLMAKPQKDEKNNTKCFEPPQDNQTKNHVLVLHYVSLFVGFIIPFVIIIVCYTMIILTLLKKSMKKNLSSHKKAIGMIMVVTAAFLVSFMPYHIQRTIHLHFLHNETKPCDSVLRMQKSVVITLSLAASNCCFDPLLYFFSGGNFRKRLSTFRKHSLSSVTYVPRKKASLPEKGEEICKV
assayExplanation: Antagonist activity against CysLT1 receptor (unknown origin) expressed in HEK293 cells assessed as inhibition of LTD4-induced calcium mobilization pre-incubated for 10 mins before LTD4 addition by Fluo-4 AM dye based fluorimetric assay
metricName: log10(IC50) (log10 of the value in nM)

{"smilesData": "O=C(/C=C/c1c(C(=O)O)[nH]c2ccccc12)OCc1cccc(/C=C/c2ccc3ccc(Cl)cc3n2)c1", "log10(IC50)": 2.08}
{"smilesData": "O=C(/C=C/c1c(C(=O)O)[nH]c2ccc(F)cc12)Nc1cccc(/C=C/c2ccc3ccc(Cl)cc3n2)c1", "log10(IC50)": 0.89}
{"smilesData": "O=C(O)c1[nH]c2ccccc2c1C(=O)Nc1cccc(/C=C/c2ccc3ccc(Cl)cc3n2)c1", "log10(IC50)": 1.54}
{"smilesData": "COc1cccc2c(/C=C/C(=O)Nc3cccc(/C=C/c4ccc5ccc(Cl)cc5n4)c3)c(C(=O)O)[nH]c12", "log10(IC50)": 0.77}
{"smilesData": "COc1ccc2[nH]c(C(=O)O)c(/C=C/C(=O)Nc3cccc(/C=C/c4ccc5ccc(Cl)cc5n4)c3)c2c1", "log10(IC50)": 1.40}

---

This section presents molecules with their documented IC50 values.
assayedSystem: Cysteinyl leukotriene receptor 2 (Homo sapiens, UniProt Q9NS75)
Sequence (Q9NS75 whole entry): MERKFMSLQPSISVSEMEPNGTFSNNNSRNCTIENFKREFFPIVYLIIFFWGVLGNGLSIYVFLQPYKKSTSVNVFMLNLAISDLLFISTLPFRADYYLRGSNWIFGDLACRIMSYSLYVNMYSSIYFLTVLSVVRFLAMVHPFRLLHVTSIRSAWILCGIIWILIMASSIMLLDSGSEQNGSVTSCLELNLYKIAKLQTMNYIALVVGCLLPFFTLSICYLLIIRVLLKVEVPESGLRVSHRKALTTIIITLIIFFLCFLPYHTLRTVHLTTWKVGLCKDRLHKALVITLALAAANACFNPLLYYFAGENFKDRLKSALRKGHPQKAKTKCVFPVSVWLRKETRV
assayExplanation: Antagonist activity against CysLT2 receptor (unknown origin) expressed in HEK293 cells assessed as inhibition of LTD4-induced calcium mobilization pre-incubated for 10 mins before LTD4 addition by Fluo-4 AM dye based fluorimetric assay

{"smilesData": "O=C(/C=C/c1c(C(=O)O)[nH]c2ccc(Cl)cc12)Nc1cccc(/C=C/c2ccc3ccc(Cl)cc3n2)c1", "IC50": "> 100 µM"}
{"smilesData": "O=C(/C=C/c1c(C(=O)O)[nH]c2cc(Cl)cc(Cl)c12)OCCc1ccccc1", "IC50": "> 100 µM"}
{"smilesData": "O=C(/C=C/c1c(C(=O)O)[nH]c2ccc(F)cc12)Nc1cccc(/C=C/c2ccc3ccc(Cl)cc3n2)c1", "IC50": "46 µM"}
{"smilesData": "O=C(/C=C/c1c(C(=O)O)[nH]c2cc(Cl)cc(Cl)c12)OCC1CCCCC1", "IC50": "> 100 µM"}
{"smilesData": "COc1ccc2[nH]c(C(=O)O)c(/C=C/C(=O)Nc3cccc(/C=C/c4ccc5ccc(Cl)cc5n4)c3)c2c1", "IC50": "46 µM"}
{"smilesData": "CC(C)CCCOC(=O)/C=C/c1c(C(=O)O)[nH]c2cc(Cl)cc(Cl)c12", "IC50": "> 100 µM"}
{"smilesData": "O=C(/C=C/c1c(C(=O)O)[nH]c2cccc(Cl)c12)Nc1cccc(/C=C/c2ccc3ccc(Cl)cc3n2)c1", "IC50": "36 µM"}
{"smilesData": "N#CCCCCOC(=O)/C=C/c1c(C(=O)O)[nH]c2cc(Cl)cc(Cl)c12", "IC50": "> 100 µM"}
{"smilesData": "CCCCCOC(=O)/C=C/c1c(C(=O)O)[nH]c2cc(Cl)cc(Cl)c12", "IC50": "> 100 µM"}
